# EXPERIMENT_SUMMARY: NCI Yeast Anticancer Drug Screen. Data for the sgs1 mgt1 strain (AID 161);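 further: 0% = growth of cultures given vehicle only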
# PROTOCOL_CONDITIONS: S. cerevisiae sgs1 mgt1 strain, at 50.0 µM (retest, dose inferred, filed as 5.0), stronger effect = higher value
Compounds without any hit were thinned out: in the full panel of roughly 79,000, 15% have a hit. The source made the active and inactive calls. No stated cut-off is given here; in the data, active means growth inhibition above about 70%; inactive means the rest.
REPORTED_PROPERTY: growth inhibition

Consider the worked cases shown below.
MOLECULE: O=C1C(Cl)=C(Nc2ccc(S(=O)(=O)Nc3ccccn3)cc2)C(=O)c2ccccc21
RESULT: 99% (active)
--
MOLECULE: CCCCN(CCCC)CC(O)c1cc(-c2ccc(Cl)cc2)nc2c(-c3ccccc3)cccc12 (centres undefined)
RESULT: 54% (inactive)
--
MOLECULE: O=CC(=O)CC(O)CO (centres undefined)
RESULT: 81% (active)
--
MOLECULE: CC(=O)OCC1OC(n2c(O)c(N=NC(N)=S)c3ccc([N+](=O)[O-])cc32)C(OC(C)=O)C1OC(C)=O (centres undefined)
RESULT: 72% (active)

Write down growth inhibition measured for item `Cc1cc(CN(Cc2ccccc2)Cc2nc3ccccc3[nH]2)c(O)c(CN(Cc2nc3ccccc3[nH]2)Cc2nc3ccccc3[nH]2)c1` 70% (active)
